Experiment: M. tuberculosis H37Rv growth inhibitors, H37Rv strain (AID 1626);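 further: bacteria incubated seven days before Alamar blue readout; 0% = bacteria only wells and 100% = bacteria with antibiotic wells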
Details: active compounds read high, concentration not given here
Screen size: about 220,000 compounds; about 2,000 (0.91%) were called active. Another 2% or so got no clear call; they are omitted. The list is a sample of the results. Results with a measured potency or affinity are listed apart.
inhibition: recorded values

# Compound, inhibition
records = [
    ("COc1ccc2nc(/N=C/c3c(C)[nH]n(-c4ccc(C)cc4C)c3=O)sc2c1", "6.1% (inactive)"),
    ("COc1ccc(/C=N/NC(=O)c2cc(C34CC5CC(CC(C5)C3)C4)[nH]n2)cc1OC", "-1.09% (inactive)"),
    ("CN1C[C@@H]2C(c3ccccc3)C3(c4cccnc4)CC2(C3)[C@H]1c1ccccc1 (stereo partly drawn)", "1.01% (inactive)"),
    ("Cc1ccc(CN2CCN(Cc3ccncc3)CC2CCO)o1 (stereo not drawn)", "-0.74% (inactive)"),
    ("O=C(c1ccccc1)c1cccs1", "0.41% (inactive)"),
    ("CCOC(=O)c1c(-c2ccc(C)s2)csc1N", "3.65% (inactive)"),
    ("Cc1sc2nc(CSc3ccccc3)nc(N3CCN(C)CC3)c2c1C", "0.24% (inactive)"),
    ("CC(C)(C)c1ccc(OCCC(=O)NC2=NCCS2)cc1", "-11.7% (inactive)"),
    ("O=C(Nc1ccncc1)c1sc2ccccc2c1Cl", "2.92% (inactive)"),
    ("Nc1nnc(SCC(=O)N2CCN(c3ccccc3)CC2)n1-c1ccccc1", "-16.5% (inactive)"),
    ("O=C(COC(=O)c1ccccn1)Nc1nccs1", "-5.49% (inactive)"),
    ("Oc1oc(-c2ccccc2)nc1/C=N/c1nccs1", "-8.45% (inactive)"),
    ("CNc1nc(-c2ccccc2)nnc1C(F)(F)F", "-2.77% (inactive)"),
    ("Nc1ccc(C(=O)c2cccs2)cn1", "-5.69% (inactive)"),
    ("FC(F)(F)c1cccc(Oc2nc(-c3ccccc3)nnc2C(F)(F)F)c1", "8.03% (inactive)"),
    ("CCOC(=O)C(C)Sc1nc(=O)n2ccccc2n1 (stereo not drawn)", "-0.38% (inactive)"),
    ("O=[N+]([O-])c1ccc(O)c(N=Cc2sc3ccccc3c2O)c1", "5.55% (inactive)"),
    ("Cc1ccc(O)c(N=Cc2sc3ccccc3c2Cl)c1", "11.1% (inactive)"),
    ("FC(F)(F)c1nnc(-c2ccccc2)nc1N1CCCC1", "-1.21% (inactive)"),
    ("Cn1c(SCC(=O)N/N=C/c2cccnc2)nnc1-c1ccccc1", "-5.36% (inactive)"),
    ("CCCCOc1ccc(-c2nc(/C=N/c3nccs3)c(O)o2)cc1", "25.4% (inactive)"),
    ("O=C(COC(=O)c1cccs1)NCC1CCCO1 (stereo not drawn)", "-10.3% (inactive)"),
    ("CCOC(=O)c1sc2nc(CSc3ccccc3)nc(NCCN(C)C)c2c1C", "-5.4% (inactive)"),
    ("CCOc1ccc(OCCCC(=O)NC2=NCCS2)cc1", "-1.83% (inactive)"),
    ("CCN(c1ccccc1)S(=O)(=O)c1ccc(Cl)c(NC(=O)CN2C(=O)NC3(CCCC3)C2=O)c1", "-9.72% (inactive)"),
    ("CCOc1ccc(-n2cc(-c3ccccc3)c3c(=O)[nH]cnc32)cc1", "64.1% (inactive)"),
    ("Cc1cccc([N+](=O)[O-])c1NC(=O)CN(Cc1ccccc1)Cc1ccccc1", "-0.69% (inactive)"),
    ("O=C(NCc1ccccc1)N(Cc1cc2cc3c(cc2[nH]c1=O)OCCO3)CC1CCCO1 (stereo not drawn)", "-1.33% (inactive)"),
    ("CCC(=O)Nc1cccc(C(=O)Nc2nccs2)c1", "2.64% (inactive)"),
    ("CC(C)CNC(=O)c1c(N)n(/N=C/c2ccccn2)c2nc3ccccc3nc12", "-5.94% (inactive)"),
    ("Fc1ccc(Oc2nc(-c3ccccc3)nnc2C(F)(F)F)cc1", "-3.97% (inactive)"),
    ("c1nc(NCC2(N3CCOCC3)CCCCC2)c2ccsc2n1", "-2.31% (inactive)"),
    ("COc1ccc(-n2c(C)nc3c(cnn3-c3ccc(C)c(C)c3)c2=O)cc1", "17.5% (inactive)"),
    ("Clc1ccccc1Sc1ccc(-c2ccccn2)s1", "-5.02% (inactive)"),
    ("CCOC(=O)c1ccc(NC(=S)Nc2cccc(N)n2)cc1", "59.5% (inactive)"),
    ("Cc1cc(=O)n2nc(N3CCC(C(=O)N4CCN(C)CC4)CC3)sc2n1", "-6.22% (inactive)"),
    ("CCn1c(=O)c(-c2nc3ccccc3[nH]2)c(O)c2ccccc21", "43.3% (inactive)"),
    ("Cn1c(NC(=O)C2CC2)cc(=O)n(C)c1=O", "5.07% (inactive)"),
    ("Clc1ccc(Nc2ncn[nH]2)cc1", "77.2% (inactive)"),
    ("CC1=C(C(=O)Nc2ccccc2C)C(c2cccs2)NC(=S)N1 (stereo not drawn)", "-1.29% (inactive)"),
    ("CCOc1ccc(-c2cc(CCCC(=O)NCCc3ccccc3)no2)cc1", "4.69% (inactive)"),
    ("Nc1o[nH]c(=O)c1Cc1ccccc1", "-2.12% (inactive)"),
    ("COc1ccccc1NC(=O)c1cc2ccccc2nc1C", "2.95% (inactive)"),
    ("CCn1cc(C2C3=C(CC(C)(C)CC3=O)N(c3ccccc3)C3=C2C(=O)CC(C)(C)C3)c(C)n1", "-3.23% (inactive)"),
    ("CCOC(=O)c1cc(NC(=O)N2CCOCC2)c(C)nc1C", "-1.72% (inactive)"),
    ("CN(C(=O)COc1ccccc1)c1nc(-c2ccc(F)cc2)cs1", "-0.64% (inactive)"),
    ("CCCCCn1c(=O)c(-c2nc3ccccc3[nH]2)c(O)c2ccccc21", "52.9% (inactive)"),
    ("COc1cc(/C=N/NC(=O)COc2ccccc2[N+](=O)[O-])ccc1OC(=O)c1ccco1", "4.21% (inactive)"),
]
